Test system: SNB-19 CNS
Test: NCI-60 one-dose screen, 48 h
Conditions: 10 µM unless noted
This is part of a sample that, as a whole, favours compounds with a hit. Of some 83,000 tested, about 20% had one in any assay. The source made the active and inactive calls. Rule for the calls: active = growth percent below 10; inactive = the rest.
Labels: active, inactive

[
  {
    "molecule": "Cn1nc(CC#N)c2c(=N)n(N)cnc21",
    "target-under-test": "SNB-19 CNS",
    "label": "inactive"
  },
  {
    "molecule": "COc1cc2c(=O)n(CCCN(C)C)c3c4cc5c(cc4ccc3c2cc1OC)OCO5",
    "target-under-test": "SNB-19 CNS",
    "label": "inactive"
  },
  {
    "molecule": "O=C1C=CC(=O)N1c1cccc(Cl)c1",
    "target-under-test": "SNB-19 CNS",
    "label": "inactive"
  },
  {
    "molecule": "CCc1c2c(nc3ccc(OCc4ccc(B(O)O)cc4)cc13)-c1cc3c(c(=O)n1C2)COC(=O)[C@]3(O)CC",
    "target-under-test": "SNB-19 CNS",
    "label": "active"
  },
  {
    "molecule": "Cc1ccc(NC(=O)Cc2ccc(/C=C/C(=O)c3ncc[nH]3)cc2)cc1",
    "target-under-test": "SNB-19 CNS",
    "label": "inactive"
  },
  {
    "molecule": "c1ccc2c(-c3c[nH]c4ccccc34)c3c(cc2c1)[nH]c1ccccc13",
    "target-under-test": "SNB-19 CNS",
    "label": "inactive"
  },
  {
    "molecule": "N#C/C(=C\\c1ccccn1)c1nc2cc(Cl)ccc2s1",
    "target-under-test": "SNB-19 CNS",
    "label": "inactive"
  },
  {
    "molecule": "O=C(CCN1CCCC1)Nc1ccc2c(Nc3ccc(F)cc3)c3ccccc3nc2c1",
    "target-under-test": "SNB-19 CNS",
    "label": "inactive"
  },
  {
    "molecule": "O=C(O)c1ccc(NCc2cn(-c3ccc(C(F)(F)F)cc3)nc2-c2ccc(C(=O)O)cc2)cc1",
    "target-under-test": "SNB-19 CNS",
    "label": "inactive"
  },
  {
    "molecule": "COC(=O)C(CC=O)C(=O)C(=O)Nc1cccc(C(F)(F)F)c1 (stereo unspecified)",
    "target-under-test": "SNB-19 CNS",
    "label": "inactive"
  },
  {
    "molecule": "Cc1ccc(CNc2c3ccccc3nc3cc(NC(=O)CCN4CCCC4)ccc23)cc1",
    "target-under-test": "SNB-19 CNS",
    "label": "inactive"
  },
  {
    "molecule": "CC(C)(C)c1cc(C=O)cc(C(C)(C)C)c1O",
    "target-under-test": "SNB-19 CNS",
    "label": "inactive"
  },
  {
    "molecule": "O=C1CC(=O)OC(c2ccc([N+](=O)[O-])cc2)O1",
    "target-under-test": "SNB-19 CNS",
    "label": "inactive"
  },
  {
    "molecule": "COc1cc2oc(-c3cccc(C(=O)Nc4ccc5c(c4)OCO5)c3)cc(=O)c2c(O)c1OC",
    "target-under-test": "SNB-19 CNS",
    "label": "inactive"
  },
  {
    "molecule": "COc1ccc(CNCCN2C(=O)c3ccc4c5c(ccc(c35)C2=O)C(=O)N(CCNCc2ccc(OC)c(OC)c2OC)C4=O)c(OC)c1OC",
    "target-under-test": "SNB-19 CNS",
    "label": "active"
  },
  {
    "molecule": "CN1C(N2CCN(S(=O)(=O)c3ccccc3)CC2)=NS(=O)(=O)c2ccccc21",
    "target-under-test": "SNB-19 CNS",
    "label": "inactive"
  },
  {
    "molecule": "CC(=O)N1c2ccccc2NC2=C(C(=O)NC2(C)C)C1c1ccco1 (stereo unspecified)",
    "target-under-test": "SNB-19 CNS",
    "label": "inactive"
  },
  {
    "molecule": "N=C1C(c2nc3ccccc3s2)=C(O)CN1c1cc(Cl)cc(Cl)c1",
    "target-under-test": "SNB-19 CNS",
    "label": "inactive"
  },
  {
    "molecule": "COc1cc2cc(Oc3cccc(NC(=O)Nc4cc(C(F)(F)F)cc(C(F)(F)F)c4)c3)c(C)nc2cc1OC",
    "target-under-test": "SNB-19 CNS",
    "label": "inactive"
  },
  {
    "molecule": "CCN1C(=O)N(CC)C2Nn3c(s/c(=C\\c4ccc(OC)cc4)c3=O)=NC21 (stereo unspecified)",
    "target-under-test": "SNB-19 CNS",
    "label": "inactive"
  },
  {
    "molecule": "COc1cc2nc(-c3ccc(Cl)cc3)cc(OCCCN3CCCCC3)c2cc1OC",
    "target-under-test": "SNB-19 CNS",
    "label": "inactive"
  }
]
